- systemName: T1, human high affinity trimeric IL-2 receptor (CD25/CD122/CD132) (human, UniProt P01589 22-272; P14784 27-551; P31785 23-369)
- T1 sequence 1: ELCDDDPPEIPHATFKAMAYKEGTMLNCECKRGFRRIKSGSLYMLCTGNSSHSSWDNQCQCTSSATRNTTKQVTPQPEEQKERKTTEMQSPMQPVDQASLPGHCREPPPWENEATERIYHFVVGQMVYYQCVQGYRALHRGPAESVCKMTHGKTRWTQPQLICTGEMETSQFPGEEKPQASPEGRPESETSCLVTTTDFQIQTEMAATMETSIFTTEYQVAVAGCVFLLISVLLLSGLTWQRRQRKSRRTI
- T1 sequence 2: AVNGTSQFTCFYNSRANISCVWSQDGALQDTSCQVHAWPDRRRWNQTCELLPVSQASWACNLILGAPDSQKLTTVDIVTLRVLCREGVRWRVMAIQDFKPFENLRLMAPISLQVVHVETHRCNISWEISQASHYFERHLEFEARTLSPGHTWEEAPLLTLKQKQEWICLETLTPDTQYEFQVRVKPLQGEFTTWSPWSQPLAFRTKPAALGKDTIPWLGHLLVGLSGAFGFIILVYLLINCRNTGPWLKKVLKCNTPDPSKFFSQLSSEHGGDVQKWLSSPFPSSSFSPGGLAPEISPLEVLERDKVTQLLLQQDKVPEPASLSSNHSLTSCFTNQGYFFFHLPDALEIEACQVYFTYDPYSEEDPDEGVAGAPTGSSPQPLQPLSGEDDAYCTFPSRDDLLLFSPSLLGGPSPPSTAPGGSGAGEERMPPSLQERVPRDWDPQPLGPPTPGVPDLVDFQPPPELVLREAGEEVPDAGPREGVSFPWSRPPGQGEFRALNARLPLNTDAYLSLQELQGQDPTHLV
- T1 sequence 3: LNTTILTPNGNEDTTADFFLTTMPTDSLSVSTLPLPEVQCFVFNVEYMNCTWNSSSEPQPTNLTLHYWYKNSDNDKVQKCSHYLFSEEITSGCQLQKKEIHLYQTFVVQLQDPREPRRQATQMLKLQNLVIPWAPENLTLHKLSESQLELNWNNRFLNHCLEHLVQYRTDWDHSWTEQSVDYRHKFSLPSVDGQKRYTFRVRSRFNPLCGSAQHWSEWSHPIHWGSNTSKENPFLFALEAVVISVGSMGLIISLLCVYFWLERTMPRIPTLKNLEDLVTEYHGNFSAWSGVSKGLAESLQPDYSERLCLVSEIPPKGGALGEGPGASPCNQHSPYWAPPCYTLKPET
- experimentSummary: cell-based or functional assay
Listing of entries alongside the reported pSTAT5 ratio YT CD25/YT, dilution factor 128, lower table.
Form rule: numeric answer, no unit written next to it.

So what does the record say about pSTAT5 ratio YT CD25/YT, dilution factor 128, lower table for hIL2 mutein REH (L18R, Q22E, Q126H) (ligand) APTSSSTKKTQLQLEHLRLDLEMILNGINNYKNPKLTRMLTFKFYMPKKATELKHLQCLEEELKPLEEVLNLAQSKNFHLRPRDLISNINVIVLELKGSETTFMCEYADETATIVEFLNRWITFCHSIISTLT ? 3.9

So what does the record say about pSTAT5 ratio YT CD25/YT, dilution factor 128, lower table for RKH (ligand) cytokine: APTSSSTKKTQLQLEHLRLDLKMILNGINNYKNPKLTRMLTFKFYMPKKATELKHLQCLEEELKPLEEVLNLAQSKNFHLRPRDLISNINVIVLELKGSETTFMCEYADETATIVEFLNRWITFCHSIISTLT ? 11

So what does the record say about pSTAT5 ratio YT CD25/YT, dilution factor 128, lower table for RMH (ligand) cytokine: APTSSSTKKTQLQLEHLRLDLMMILNGINNYKNPKLTRMLTFKFYMPKKATELKHLQCLEEELKPLEEVLNLAQSKNFHLRPRDLISNINVIVLELKGSETTFMCEYADETATIVEFLNRWITFCHSIISTLT ? 5.1

So what does the record say about pSTAT5 ratio YT CD25/YT, dilution factor 128, lower table for RYH (ligand) cytokine: APTSSSTKKTQLQLEHLRLDLYMILNGINNYKNPKLTRMLTFKFYMPKKATELKHLQCLEEELKPLEEVLNLAQSKNFHLRPRDLISNINVIVLELKGSETTFMCEYADETATIVEFLNRWITFCHSIISTLT ? 10.5

Reference source for all entries: patent US20210275641A1
